- System: Fibroblast
- protocol.summary: Multiplex assay against human fibroblast
- Format: toxicity, cell-based
- condition.parameters: 12 h, 1 µM, compound concentration 1 uM, replicate 2
observation.type: Population Mitotic Cells (%)
Dear colleague, please return just the value in %, with no unit written.

Study these solved cases before continuing.
>  <compound>
CC(=O)Nc1cccc2c1c(Sc1ccc(Cl)cc1)c(C)n2CC(=O)O

>  <observation.type>
Population Mitotic Cells (%)

>  <result.unit>
%

>  <experimental.result>
62

$$$$
>  <compound>
COc1ccccc1N1CCN(C[C@@H](C(=O)NC(C)(C)C)c2ccccc2)CC1.Cl.Cl

>  <observation.type>
Population Mitotic Cells (%)

>  <result.unit>
%

>  <experimental.result>
60

$$$$
>  <compound>
CC(C)COc1ccc(CNC(=O)N(Cc2ccc(F)cc2)C2CCN(C)CC2)cc1

>  <observation.type>
Population Mitotic Cells (%)

>  <result.unit>
%

>  <experimental.result>
38

$$$$

// switching to the query compound
Input: Query (compound): `NCCc1cn(S(=O)(=O)c2c(Cl)nc3sccn23)c2ccccc12.O=C(O)C(=O)O` ; field requested: Population Mitotic Cells (%)
Output: 54

###

- System: U2OS
- protocol.summary: Multiplex assay against U2OS
- Assay type: toxicity, cell-based
- condition.parameters: human, 24 h, 1 µM, compound concentration 1 uM, replicate 2
compounds and their reported Population Pyknosed Nuclei (%)
Dear colleague, please return just the value in %, with no unit written.

>  <compound>
Cc1sc2c(c1C)C(c1ccc(Cl)cc1)=N[C@@H](CC(=O)NCCCCCCCCNC(=O)COc1cccc3c1C(=O)N(C1CCC(=O)NC1=O)C3=O)c1nnc(C)n1-2 (stereo not given in full)

>  <Population Pyknosed Nuclei (%)>
7

$$$$
>  <compound>
N#Cc1c(Oc2cccc(OS(=O)(=O)CCCC(F)(F)F)c2)cccc1C(F)(F)F

>  <Population Pyknosed Nuclei (%)>
7

$$$$
>  <compound>
CCCCC1=NC2(CCCC2)C(=O)N1Cc1ccc(-c2ccccc2-c2nnn[nH]2)cc1 [IRBESARTAN]

>  <Population Pyknosed Nuclei (%)>
10

$$$$
>  <compound>
Cc1onc(-c2ccccc2Cl)c1C(=O)N(C)c1ccc(Cl)cc1

>  <Population Pyknosed Nuclei (%)>
7

$$$$

// switching to the query compound
Input: Query (compound): Cl.NCCc1ccc(O)c(O)c1 [DOPAMINE HYDROCHLORIDE] ; field requested: Population Pyknosed Nuclei (%)
Output: 7

###

- System: Fibroblast
- protocol.summary: Multiplex assay against human fibroblast
- Type: toxicity, cell-based
- condition.parameters: 24 h, 1 µM, compound concentration 1 uM, replicate 2
Rule for this label: met means Population Fragmented Nuclei (%) is less than 30%; not met means Population Fragmented Nuclei (%) is at least 30%.

>  <compound>
O=C(NCCN1CCC(n2c(=O)[nH]c3cc(Cl)ccc32)CC1)c1ccc(F)cc1 [HALOPEMIDE]

>  <class.name>
not met

$$$$
>  <compound>
CN(C)C(=O)Cn1cc(-c2ccc(-c3cncc4ccccc34)cc2)cn1

>  <class.name>
not met

$$$$
>  <compound>
Cc1cnc(-c2cc(N3CCN(C(=O)CCS(C)(=O)=O)CC3)ncc2Cl)c(C)c1

>  <class.name>
not met

$$$$
>  <compound>
CC(C)COc1ccc(CNC(=O)N(Cc2ccc(F)cc2)C2CCN(C)CC2)cc1

>  <class.name>
not met

$$$$
>  <compound>
Cc1c(CC(=O)O)c2cccnc2n1Cc1ccc(S(C)(=O)=O)cc1C(F)(F)F

>  <class.name>
not met

$$$$
>  <compound>
CCCCC(=O)N(Cc1ccc(-c2ccccc2-c2nnn[nH]2)cc1)[C@H](C(=O)O)C(C)C

>  <class.name>
met

$$$$

With those in mind, consider the next compound.
Input: Hello, I'm reviewing records and need to know if Population Fragmented Nuclei (%) of `CCc1cc2cc(NS(=O)(=O)c3ccc(C#N)cc3)ccc2n(CC)c1=O` is below 30%. Could you check?
Output: met
